Property: IC50; scope: individual compounds
testedTarget: human MC5R (hMC5R) (Homo sapiens, UniProt P33032)
Construct: purchased Perkin Elmer RBXMC5M400UA
Sequence (P33032 whole entry): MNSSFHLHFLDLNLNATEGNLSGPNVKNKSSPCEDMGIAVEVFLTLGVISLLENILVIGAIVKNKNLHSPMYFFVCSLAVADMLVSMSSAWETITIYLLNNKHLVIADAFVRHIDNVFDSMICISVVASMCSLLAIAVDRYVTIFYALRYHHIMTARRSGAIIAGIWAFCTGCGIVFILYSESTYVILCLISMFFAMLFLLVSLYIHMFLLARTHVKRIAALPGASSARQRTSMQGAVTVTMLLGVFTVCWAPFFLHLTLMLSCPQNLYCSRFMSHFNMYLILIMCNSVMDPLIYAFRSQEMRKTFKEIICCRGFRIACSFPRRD
assayInfo: Human MC5R radioligand binding assay (membranes, [125I] NDP-MSH displacement)
particulars: hMC5R binding; tested as trifluoroacetate or hydrochloride salts, or free bases; read-out: MC5R radioligand IC50

See these solved cases before continuing.
{"columns": ["compound", "testedTarget", "IC50"],
 "data": [
  ["CC[C@H](CN1CC[C@@H](CNC(=O)c2ccccc2-c2ccc(Cl)cc2)N[C@@H](CCN2CCCCC2)C1=O)c1ccccc1", "human MC5R (hMC5R) (Homo sapiens, UniProt P33032)", "< 100 nM"],
  ["CC[C@H](CN1CC[C@@H](CNC(=O)c2ccc3cc(Cl)ccc3c2)N[C@@H](CCCN2CCCCC2)C1=O)c1ccccc1", "human MC5R (hMC5R) (Homo sapiens, UniProt P33032)", "< 100 nM"],
  ["CCOC(=O)C(CN1CC[C@@H](CNC(=O)c2ccc3ccccc3c2)N[C@@H](CCCNC(=N)N)C1=O)c1ccccc1 (stereo partly shown)", "human MC5R (hMC5R) (Homo sapiens, UniProt P33032)", "< 1000 nM"],
  ["CC[C@H](CN1CC[C@@H](CNC(=O)c2cc(-c3ccc(Cl)cc3)on2)N[C@@H](CCN2CCCCC2)C1=O)c1ccccc1", "human MC5R (hMC5R) (Homo sapiens, UniProt P33032)", "< 10 nM"],
  ["C[C@@H](CN1CC[C@@H](CNC(=O)c2ccc3ccccc3c2)N[C@@H](CCCN)C1=O)c1ccccc1", "human MC5R (hMC5R) (Homo sapiens, UniProt P33032)", "< 10000 nM"]
]}

[Q] Entry COc1c(C(=O)NC[C@@H]2CCN(Cc3cc(Cl)cc(Cl)c3)C(=O)[C@H](CCN3CCCCC3)N2)ccc2ccccc12 needs its IC50 filled in; supply it.
[A] < 100 nM

###

testedTarget: human MC5R (hMC5R) (Homo sapiens)
Construct: purchased Perkin Elmer RBXMC5M400UA
assayInfo: Human MC5R radioligand binding assay (membranes, [125I] NDP-MSH displacement)
particulars: hMC5R binding; tested as trifluoroacetate or hydrochloride salts, or free bases; read-out: MC5R radioligand IC50
pIC50: −log10 of the molar value.
readoutName: pIC50

{"columns": ["compound", "pIC50"],
 "data": [
  ["CC[C@H](CN1CC[C@@H](CNC(=O)c2ccc(-c3ccccc3)cc2)N[C@@H](CCN2CCCCC2)C1=O)c1ccccc1", "> 7.00"],
  ["N=C(N)NCCC[C@@H]1N[C@H](CNC(=O)c2ccc3ccccc3c2)CCN(c2ccc3ccccc3c2)C1=O", "> 5.00"]
]}

[Q] Entry NCC[C@@H]1N[C@H](CNC(=O)c2ccc3ccccc3c2)CCN(CC(c2ccccc2)c2ccccc2)C1=O needs its pIC50 filled in; supply it.
[A] > 6.00

[Q] Entry NCCC[C@@H]1N[C@H](CNC(=O)c2ccc3ccccc3c2)CCN(Cc2cc(F)cc(F)c2)C1=O needs its pIC50 filled in; supply it.
[A] > 5.00

[Q] Entry CC[C@H](CN1CCC(CNC(=O)c2ccc3cc(Cl)ccc3c2)NC(C2CCNCC2)C1=O)c1ccccc1 (some centres unmarked) needs its pIC50 filled in; supply it.
[A] > 7.00

[Q] Entry NCCC[C@@H]1N[C@H](CNC(=O)c2ccc3ccccc3c2)CCN(Cc2c(Cl)cccc2Cl)C1=O needs its pIC50 filled in; supply it.
[A] > 5.00

[Q] Entry NCCC[C@@H]1N[C@H](CNC(=O)c2ccc3ccccc3c2)CCN(Cc2cc(F)cc(C(F)(F)F)c2)C1=O needs its pIC50 filled in; supply it.
[A] > 5.00

[Q] Entry O=C1[C@H](CCN2CCCCC2)N[C@H](CN2C(=O)c3cc(Cl)c(Cl)cc3C2=O)CCN1Cc1cc(Cl)cc(Cl)c1 needs its pIC50 filled in; supply it.
[A] > 6.00

[Q] Entry N=C(N)NCCC[C@@H]1N[C@H](CNC(=O)c2ccc3ccccc3c2)CCN(CC(c2ccc(F)cc2)c2ccc(F)cc2)C1=O needs its pIC50 filled in; supply it.
[A] > 7.00

[Q] Entry N=C(N)NCCC[C@@H]1N[C@H](CNC(=O)[C@H]2Cc3ccccc3CN2)CCN(CC(c2ccccc2)c2ccccc2)C1=O needs its pIC50 filled in; supply it.
[A] > 6.00

[Q] Entry NCC[C@@H]1N[C@H](CNC(=O)c2ccc(C(F)(F)F)cc2)CCN(CC(c2ccccc2)c2ccccc2)C1=O needs its pIC50 filled in; supply it.
[A] > 5.00

[Q] Entry CC[C@H](CN1CC[C@@H](CNC(=O)c2ccc3ccccc3c2)N[C@@H](CCN)C1=O)c1ccccc1 needs its pIC50 filled in; supply it.
[A] > 6.00

[Q] Entry O=C(/C=C/c1ccc(Cl)cc1)NC[C@@H]1CCN(CC(c2ccccc2)c2ccccc2)C(=O)[C@H](CCN2CCOCC2)N1 needs its pIC50 filled in; supply it.
[A] > 7.00

[Q] Entry CC[C@@H](CN1CC[C@@H](CNC(=O)/C=C/c2ccc(Cl)cc2)N[C@@H](CCN2CCCCC2)C1=O)c1ccccc1 needs its pIC50 filled in; supply it.
[A] > 7.00

FYI, the data here is from patent US8008291B2.
